Some compounds, each annotated with its measured pIC50.
measured_on: human V2 receptor (Homo sapiens)
Sequence (P30518 whole entry): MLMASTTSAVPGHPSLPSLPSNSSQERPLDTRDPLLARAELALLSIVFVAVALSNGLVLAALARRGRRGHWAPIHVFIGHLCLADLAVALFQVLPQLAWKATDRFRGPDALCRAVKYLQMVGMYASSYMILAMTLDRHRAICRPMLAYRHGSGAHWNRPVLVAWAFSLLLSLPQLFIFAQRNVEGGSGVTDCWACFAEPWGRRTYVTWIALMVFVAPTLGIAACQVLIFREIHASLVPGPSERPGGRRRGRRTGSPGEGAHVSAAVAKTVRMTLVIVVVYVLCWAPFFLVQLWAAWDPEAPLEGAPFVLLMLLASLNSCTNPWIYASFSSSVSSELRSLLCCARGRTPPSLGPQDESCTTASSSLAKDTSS
test_protocol: V2 vasopressin receptor functional activity (cAMP accumulation)
Format: cell-based
Design: expressed in transfected cells; host or cells: HEK-293
run_parameters: V2-HEK cells; block of vasopressin-stimulated cAMP accumulation; read-out: V2 (functional) IC50
Method: The V2 receptor is also a G-protein coupled receptor which when activated induces an increase in cAMP turnover. Antagonism against the V2 receptor is determined by measuring cAMP accumulation in transfected HEK-293 cells expressing the human V-2 receptor (V2-HEK cells). Compounds are tested for their ability to block the stimulatory effects of vasopressin on cAMP accumulation. The cell content of cAMP is measured by radioimmunoassay using NEN flashplates.
Please express pIC50 as -log10 of the molar concentration.

// worked examples, pIC50 included
The reported pIC50 of the compound COc1cc(C(=O)N2CC[C@@]3(CCC(N)C3)Cc3ccccc32)ccc1NC(=O)c1cc(F)ccc1Cl (stereo partly drawn) [Cpd 17] was 5.96

Record O=C(Nc1ccc(C(=O)N2CC[C@@]3(CCCC3=NO)Cc3ccccc32)cc1)c1cc(F)ccc1Cl [Cpd 7] , field pIC50: 7.62

Reported pIC50 ( COc1cc(C(=O)N2CC[C@@]3(CCC(N4CCOCC4)C3)Cc3ccccc32)ccc1NC(=O)c1cc(F)ccc1Cl (stereo partly drawn) [Cpd 18] ) = 5.92

The reported value for COc1cc(C(=O)N2CC[C@@]3(CCC(NS(N)(=O)=O)C3)Cc3ccccc32)ccc1NC(=O)c1cc(F)ccc1Cl (stereo partly drawn) [Cpd 19] in terms of pIC50 is 6.92

Others:
// sample COc1cc(C(=O)N2CC[C@@]3(CCC(=NN(C)C)C3)Cc3ccccc32)ccc1NC(=O)c1cc(F)ccc1Cl [Cpd 27] , its pIC50 was 6.41

So for O=C(NN=C1CCCC12CCN(C(=O)c1ccc(NC(=O)c3cc(F)ccc3Cl)cc1)c1ccccc1C2)c1cccnc1 (stereo not drawn) [Cpd 4] , the logged pIC50 turned out to be 7.37

###

measured_on: UniProtKB P30518
test_protocol: V2 vasopressin receptor functional activity (cAMP accumulation)
Assay type: cell-based
Set-up: expressed in transfected cells; host or cells: HEK-293
run_parameters: V2-HEK cells; block of vasopressin-stimulated cAMP accumulation; read-out: V2 (functional) IC50
Here, each record is paired with measured IC50 data.
The reply should contain only the number, in µM.

Kindly note the recorded IC50 for COc1cc(C(=O)N2CC[C@]3(C=C(C(=O)NS(N)(=O)=O)CC3)Cc3ccccc32)ccc1NC(=O)c1cc(F)ccc1Cl , which is 0.011

Record CN(C)N=C1CCCC12CCN(C(=O)c1ccc(NC(=O)c3cc(F)ccc3Cl)cc1)c1ccccc1C2 (stereo not shown) . Reported IC50: 0.25

Documented IC50 of NN=C1CCCC12CCN(C(=O)c1ccc(NC(=O)c3ccccc3-c3ccccc3)cc1)c1ccccc1C2 (stereo not shown) : 0.04

Short answer for COc1cc(C(=O)N2CC[C@@]3(CCC(=CC(=O)NCCN(C)C)C3)Cc3ccccc32)ccc1NC(=O)c1cc(F)ccc1Cl : IC50 was 0.14

###

inhibition at 0.2 µM for assorted molecules
measured_on: human V2 receptor (Homo sapiens)
test_protocol: In-vitro binding assay (3H-arginine-8-vasopressin), V2
run_parameters: test concentration of 0.2 μM; read-out: V2 binding percent inhibition (in parentheses, where an IC50 value was not obtained)

Use the examples below as a reference point.
Entry CN(C)C1CCCC12CCN(C(=O)c1ccc(NC(=O)c3cc(F)ccc3Cl)cc1)c1ccccc1C2 (stereo not shown) [Cpd 6] ; assay system human V2 receptor (Homo sapiens); inhibition at 0.2 µM recorded at 63%

Record COc1cc(C(=O)N2CCC3(CCCC3N)Cc3ccccc32)ccc1NC(=O)c1cccc(F)c1 (stereo not shown) [Cpd 50] has human V2 receptor (Homo sapiens) inhibition at 0.2 µM equal to 9%

Noted inhibition at 0.2 µM for O=C(c1ccc(N2CCCC2)cc1)N1CCC2(CCCC2=NO)Cc2ccccc21 (stereo not shown) [Cpd 46] , tested on human V2 receptor (Homo sapiens): 40%

Further cases:
Readout inhibition at 0.2 µM for Cc1ccn(-c2ccc(C(=O)N3CCC4(CCCC4=NO)Cc4ccccc43)cc2)n1 (stereo not shown) [Cpd 47] , test system human V2 receptor (Homo sapiens), was 62%

For O=C(Nc1ccc(C(=O)N2CC[C@]3(CCCC3=NO)Cc3ccccc32)cc1)c1cc(F)ccc1Cl [Cpd 45] on human V2 receptor (Homo sapiens), measured inhibition at 0.2 µM was 10%

Lab note: molecule NCCON=C1CCCC12CCN(C(=O)c1ccc(NC(=O)c3cccc(F)c3)cc1)c1ccccc1C2 (stereo not shown) [Cpd 41] tested on human V2 receptor (Homo sapiens); recorded inhibition at 0.2 µM was 55%

Record CN(C)N=C1CCCC12CCN(C(=O)c1ccc(NC(=O)c3cc(F)ccc3Cl)cc1)c1ccccc1C2 (stereo not shown) [Cpd 3] has human V2 receptor (Homo sapiens) inhibition at 0.2 µM equal to 48%

###

measured_on: human V1a receptor (Homo sapiens, UniProt P37288)
Construct: expressed in transfected cells
Sequence (P37288 whole entry): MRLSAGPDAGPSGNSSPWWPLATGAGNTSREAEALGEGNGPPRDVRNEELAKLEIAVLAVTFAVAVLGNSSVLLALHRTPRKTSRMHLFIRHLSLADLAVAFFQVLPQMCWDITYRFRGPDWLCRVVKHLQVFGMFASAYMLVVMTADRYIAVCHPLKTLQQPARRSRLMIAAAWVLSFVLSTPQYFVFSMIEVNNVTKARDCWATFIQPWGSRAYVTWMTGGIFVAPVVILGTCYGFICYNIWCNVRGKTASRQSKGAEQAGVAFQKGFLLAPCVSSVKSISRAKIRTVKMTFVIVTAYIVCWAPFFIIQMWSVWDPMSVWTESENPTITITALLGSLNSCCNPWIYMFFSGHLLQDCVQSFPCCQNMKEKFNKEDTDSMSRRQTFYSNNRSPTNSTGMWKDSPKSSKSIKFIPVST
test_protocol: In-vitro binding assay (3H-arginine-8-vasopressin), V1a
run_parameters: membrane containing human V1a receptor; 3H-arginine-8-vasopressin 0.65-0.75 nM
pIC50: −log10 of the molar value.
Each entry gets false (0) if its pIC50 stays under 8, and true (1) if its pIC50 is 8 or above.

Study these solved cases before continuing.
In plain terms: is recorded pIC50 at least 8 for O=C(Nc1ccc(C(=O)N2CCC3(CCCC3=NO)Cc3ccccc32)cc1)c1ccccc1-c1ccccc1 (centres unmarked) [Cpd 37] ?
false (0)

Textbook exercise: given the entry NN=C1CCCC12CCN(C(=O)c1ccc(NC(=O)c3cc(F)ccc3Cl)cc1)c1ccccc1C2 (centres unmarked) [Cpd 1] , state whether its pIC50 is greater than or equal to 8.
true (1)

# ---- query compound ----
Given the entry O=C(Nc1ccc(C(=O)N2CCC3(CCCC3=NO)Cc3ccccc32)cn1)c1cc(F)ccc1Cl (centres unmarked) [Cpd 10] , answer whether its pIC50 meets or surpasses 8.
false (0)

###

measured_on: human V1a receptor (Homo sapiens, UniProt P37288)
Construct: expressed in transfected cells
test_protocol: cell-based
Param label: returns label 1 when IC50 < 200 nM, returns label 0 otherwise, including exact equality.

Regarding COc1cc(C(=O)N2CC[C@@]3(CCC(N)C3)Cc3ccccc32)ccc1NC(=O)c1cc(F)ccc1Cl (stereo partly drawn) , kindly confirm whether its IC50 is beneath 200 nM.
label 0

Please check: IC50 for COc1cc(C(=O)N2CCC3(CCCC3NS(N)(=O)=O)Cc3ccccc32)ccc1NC(=O)c1cc(F)ccc1Cl (stereo not drawn) , strictly under 200 nM or not?
label 0

Find out if reported IC50 for COc1cc(C(=O)N2CC[C@]3(C=C(C(=O)NS(=O)(=O)N(C)C)CC3)Cc3ccccc32)ccc1NC(=O)c1cc(F)ccc1Cl is less than 200 nM
label 0

Input COc1cc(C(=O)N2CC[C@@]3(CCC(=NOCC(=O)O)C3)Cc3ccccc32)ccc1NC(=O)c1cc(F)ccc1Cl ; condition: IC50 strictly below 200 nM. Does it hold?
label 1

Is IC50 strictly under 200 nM for the entry NC1CCCC12CCN(C(=O)c1ccc(NC(=O)c3ccccc3-c3ccccc3)cc1)c1ccccc1C2 (stereo not drawn) ?
label 0

hey, is IC50 for NCCON=C1CCCC12CCN(C(=O)c1ccc(NC(=O)c3cccc(F)c3)cc1)c1ccccc1C2 (stereo not drawn) lower than 200 nM or not?
label 1

Dear reviewer, please state whether NCC(=O)NC1CCCC12CCN(C(=O)c1ccc(NC(=O)c3ccccc3-c3ccccc3)cc1)c1ccccc1C2 (stereo not drawn) has IC50 strictly beneath 200 nM.
label 0

Threshold test, IC50 < 200 nM: COc1cc(C(=O)N2CC[C@@]3(CCC(N4CCCC4)C3)Cc3ccccc32)ccc1NC(=O)c1cc(F)ccc1Cl (stereo partly drawn)
label 0

Would you kindly verify if IC50 of COc1cc(C(=O)N2CC[C@@]3(CCC(NCCN(C)C)C3)Cc3ccccc32)ccc1NC(=O)c1cc(F)ccc1Cl (stereo partly drawn) is strictly less than 200 nM?
label 1

###

Catalogue of compounds with associated pIC50
measured_on: human V1a receptor (Homo sapiens, UniProt P37288)
Construct: expressed in transfected cells
test_protocol: cell-based
run_parameters: V1 (functional) IC50, V1a-HEK cells; inhibition of vasopressin-stimulated intracellular calcium mobilization
Scale: negative log10 of molar concentration, which is what pIC50 denotes.

I looked up CON=C1CC[C@@]2(CCN(C(=O)c3ccc(NC(=O)c4cc(F)ccc4Cl)c(OC)c3)c3ccccc3C2)C1 [Cpd 22] and its pIC50 for human V1a receptor (Homo sapiens, UniProt P37288) was 6.54

Field pIC50 (system: human V1a receptor (Homo sapiens, UniProt P37288)) for entry COc1cc(C(=O)N2CC[C@@]3(CCC(NS(N)(=O)=O)C3)Cc3ccccc32)ccc1NC(=O)c1cc(F)ccc1Cl (stereo partly drawn) [Cpd 19] = 7.00

Here COC(=O)C=C1CC[C@@]2(CCN(C(=O)c3ccc(NC(=O)c4cc(F)ccc4Cl)c(OC)c3)c3ccccc3C2)C1 [Cpd 26] was tested on human V1a receptor (Homo sapiens, UniProt P37288), and its pIC50 came to 5.40

Next:
// compound COc1cc(C(=O)N2CC[C@@]3(CCC(=NN(C)C)C3)Cc3ccccc32)ccc1NC(=O)c1cc(F)ccc1Cl [Cpd 27] , assay human V1a receptor (Homo sapiens, UniProt P37288), pIC50 value: 6.89

Here COc1cc(C(=O)N2CC[C@@]3(CCC(=NO)C3)Cc3ccccc32)ccc1NC(=O)c1cc(F)ccc1Cl [Cpd 15] was tested on human V1a receptor (Homo sapiens, UniProt P37288), and its pIC50 came to 7.05

The origin of these recorded values is patent US20080306044A1.
